System: Hepatitis B virus
experimentalProtocol: Antiviral activity against Hepatitis B virus infected in human HepG2.2.15.7 assessed as reduction in HBV DNA level incubated for 9 days media replaced every 3 days once with test compound by RT-PCR analysis
Assay type: functional, organism-based
pIC50: −log10 of the molar value.
Classify by measured pIC50: Criterion met if it is equal to or exceeds 5, Criterion not met if it is smaller.

>>> discretelabel("C=C1[C@@H](n2cc(Cl)c3c(N)ncnc32)[C@H](O)[C@H](O)[C@@]1(C)CO")
"Criterion not met"
>>> discretelabel("C=C1[C@@H](n2ccc3c(N)ncnc32)[C@H](O)[C@H](O)[C@@]1(C)CO")
"Criterion not met"
>>> discretelabel("C=C1[C@H](CO)[C@@H](O)C[C@@H]1n1cnc2c(=O)[nH]c(N)nc21")
"Criterion met"
>>> discretelabel("C#Cc1cn([C@@H]2C(=C)[C@](C)(CO)[C@@H](O)[C@H]2O)c2ncnc(N)c12")
"Criterion met"
>>> discretelabel("C=C1[C@@H](n2cc(I)c3c(N)ncnc32)[C@H](O)[C@H](O)[C@@]1(C)CO")
"Criterion met"
>>> discretelabel("C=C1[C@@H](n2cc(F)c3c(N)ncnc32)[C@H](O)[C@H](O)[C@@]1(C)CO")
"Criterion not met"
>>> discretelabel("C=Cc1cn([C@@H]2C(=C)[C@](C)(CO)[C@@H](O)[C@H]2O)c2ncnc(N)c12")
"Criterion not met"

---

Item-by-item account of CC50
experimentalProtocol: Cytotoxicity against human HepG2.2.15.7 cells assessed as reduction in cell viability
Format: cell-based
quantity: CC50

>>> obsvalue("C#Cc1cn([C@@H]2C(=C)[C@](C)(CO)[C@@H](O)[C@H]2O)c2ncnc(N)c12")
"> 100 µM"
>>> obsvalue("C=C1[C@@H](n2cc(F)c3c(N)ncnc32)[C@H](O)[C@H](O)[C@@]1(C)CO")
"> 100 µM"
>>> obsvalue("C=C1[C@@H](n2cc(Cl)c3c(N)ncnc32)[C@H](O)[C@H](O)[C@@]1(C)CO")
"> 100 µM"
>>> obsvalue("Nc1ncnc2c1ncn2[C@@H]1C[C@H](CO)[C@@H](O)[C@H]1O [ARISTEROMYCIN]")
"> 3 µM"
>>> obsvalue("C=C1[C@H](CO)[C@@H](O)C[C@@H]1n1cnc2c(=O)[nH]c(N)nc21 [ENTECAVIR]")
"> 0.1 µM"
>>> obsvalue("C=C1[C@@H](n2cc(Br)c3c(N)ncnc32)[C@H](O)[C@H](O)[C@@]1(C)CO")
"> 100 µM"
>>> obsvalue("C=C1[C@@H](n2cc(I)c3c(N)ncnc32)[C@H](O)[C@H](O)[C@@]1(C)CO")
"87.5 µM"
>>> obsvalue("C=C1[C@@H](n2ccc3c(N)ncnc32)[C@H](O)[C@H](O)[C@@]1(C)CO")
"> 100 µM"
>>> obsvalue("C=Cc1cn([C@@H]2C(=C)[C@](C)(CO)[C@@H](O)[C@H]2O)c2ncnc(N)c12")
"> 100 µM"
